// reported Ki per item
# TARGET_OR_SYSTEM: T1, hMC4-R (human, UniProt P32245 1-332)
# T1 construct: whole, on cells; Assayed as membranes of CHO-K1 cells expressing the receptor; also called hMC-R receptor subtype 4; melanocortin-4 (MC4-R)
# T1 sequence (P32245 whole entry): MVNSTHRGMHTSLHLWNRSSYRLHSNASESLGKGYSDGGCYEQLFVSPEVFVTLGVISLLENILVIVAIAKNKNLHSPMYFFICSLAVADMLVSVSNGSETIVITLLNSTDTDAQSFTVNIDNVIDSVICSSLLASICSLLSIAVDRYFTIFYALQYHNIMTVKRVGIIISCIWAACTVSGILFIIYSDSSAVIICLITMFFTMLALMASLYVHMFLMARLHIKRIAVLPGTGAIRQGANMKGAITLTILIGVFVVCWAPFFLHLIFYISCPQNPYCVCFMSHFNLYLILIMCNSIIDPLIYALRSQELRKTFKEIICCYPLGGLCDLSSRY
# PROTOCOL: competition with [125I]-NDP-α-MSH, CHO-K1 membranes
Bridge positions count the residues as written; N and C are the ends. Square brackets hold non-standard residues; d marks the D form. Ends that are not written are not given here. Bta = N[C@@H](Cc1csc2ccccc12)C(=O)O; Nle = CCCC[C@H](N)C(=O)O; Ava = NCCCCC(=O)O
Answer with a number only, understood to be in µM.

Some binders with known Ki results, for comparison:
Ac-[Nle]D[dA]H[dF]R[Bta]K-NH2 (lactam 2-8; SMILES CCCC[C@H](NC(C)=O)C(=O)N[C@H]1CC(=O)NCCCC[C@@H](C(N)=O)NC(=O)[C@H](Cc2csc3ccccc23)NC(=O)[C@H](CCCNC(=N)N)NC(=O)[C@@H](Cc2ccccc2)NC(=O)[C@H](Cc2c[nH]cn2)NC(=O)[C@@H](C)NC1=O) [Ac-Nle-c(Asp-D-Ala-His-D-Phe-Arg-Bal-Lys)-NH2]; 0.0506
[Nle]CH[dF]RW[Ava]C-NH2 (disulfide 2-8; N-terminus assumed; SMILES CCCC[C@H](N)C(=O)N[C@H]1CSSC[C@@H](C(N)=O)NC(=O)CCCCNC(=O)[C@H](Cc2c[nH]c3ccccc23)NC(=O)[C@H](CCCNC(=N)N)NC(=O)[C@@H](Cc2ccccc2)NC(=O)[C@H](Cc2c[nH]cn2)NC1=O) [Nle-c(Cys-His-D-Phe-Arg-Trp-Apn-Cys)-NH2]; 0.00085

// field: Ki; key: Ac-[Nle]DH[dF]RW[Ava]K-NH2 (lactam 2-8) [Ac-Nle-c(Asp-His-D-Phe-Arg-Trp-Apn-Lys)-NH2] ; value = 0.0111

Reference for the values: patent US20120135923A1
